Species on record: Homo sapiens
MEASUREMENT DESCRIPTION: Selectivity ratio of IC50 for human recombinant DAGLalpha over Ki for human recombinant CB2 receptor
Measured Ratio values are reported for all entries that follow.
# respond with the number and nothing more

Examples with answers:
QUERY SMILES: CCCCCCCCCCC[C@@H](C[C@@H]1OC(=O)[C@H]1CCCCCC)OC(=O)[C@@H](NC(C)=O)[C@@H](C)CC
Ratio: 15

QUERY SMILES: CCCCCCCCCCC[C@@H](C[C@@H]1OC(=O)[C@H]1CCCCCC)OC(=O)[C@@H](NC(C)=O)C(C)C
Ratio: 15

QUERY SMILES: CCCCCCCCCCC[C@@H](C[C@@H]1OC(=O)[C@H]1CCCCCC)OC(=O)[C@@H]1CCC(=O)N1
Ratio: 15

// lookup Ratio for CCCCCCCCCCC[C@@H](C[C@@H]1OC(=O)[C@H]1CCCCCC)OC(=O)[C@H](C)NC=O
23

Value lookup for Ratio; key = CCCCCCCCCCC[C@@H](C[C@@H]1OC(=O)[C@H]1CCCCCC)OC(=O)[C@@H](NC=O)C(C)C
23

Need Ratio of CCCCCCCCCCC[C@@H](C[C@@H]1OC(=O)[C@H]1CCCCCC)OC(=O)[C@@H](NC=O)[C@@H](C)CC , thanks.
23

====

SYSTEM NAME: Cannabinoid receptor 1 (Homo sapiens)
Sequence (P21554 whole entry): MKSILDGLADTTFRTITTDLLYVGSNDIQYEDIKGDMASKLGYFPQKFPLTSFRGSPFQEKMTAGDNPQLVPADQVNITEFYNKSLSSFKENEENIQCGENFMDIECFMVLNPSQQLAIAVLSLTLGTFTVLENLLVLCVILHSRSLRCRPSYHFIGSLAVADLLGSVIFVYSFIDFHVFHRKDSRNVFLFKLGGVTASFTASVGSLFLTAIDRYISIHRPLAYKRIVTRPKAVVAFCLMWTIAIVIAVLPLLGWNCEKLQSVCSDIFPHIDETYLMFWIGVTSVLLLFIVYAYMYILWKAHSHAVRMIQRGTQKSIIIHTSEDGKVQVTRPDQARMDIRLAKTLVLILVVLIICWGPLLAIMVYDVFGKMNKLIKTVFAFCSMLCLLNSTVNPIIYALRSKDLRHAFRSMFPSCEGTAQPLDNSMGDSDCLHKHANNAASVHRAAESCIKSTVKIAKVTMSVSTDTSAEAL
MEASUREMENT DESCRIPTION: Displacement of [3H]CP-55940 from human recombinant CB1 receptor expressed in HEK293 cells by scintillation counting
QUANTITY: Ki (µM)
Report the figure in µM without appending any unit label.

MOLECULE: CCCCCCCCCCC[C@@H](C[C@@H]1OC(=O)[C@H]1CCCCCC)OC(=O)[C@@H](NC=O)[C@@H](C)CC
OBSERVED: 6
//
MOLECULE: CCCCCCCCCCC[C@@H](C[C@@H]1OC(=O)[C@H]1CCCCCC)OC(=O)[C@@H](NC(C)=O)C(C)C
OBSERVED: 8.4
//
MOLECULE: CCCCCCCCCCC[C@@H](C[C@@H]1OC(=O)[C@H]1CCCCCC)OC(=O)[C@@H]1CCCN1C=O
OBSERVED: 1.7

Given the molecule CCCCCCCCCCC[C@@H](C[C@@H]1OC(=O)[C@H]1CCCCCC)OC(=O)[C@H](C)NC=O , what is its reported Ki?
3.1

Need Ki, item CCCCCCCCCCC[C@@H](C[C@@H]1OC(=O)[C@H]1CCCCCC)OC(=O)CCNC=O
1.9

What value of measured Ki is listed for CCCCCCCCCCC[C@@H](C[C@@H]1OC(=O)[C@H]1CCCCCC)OC(=O)[C@@H](NC(C)=O)[C@@H](C)CC ?
8.6

Could you tell me which Ki is on file for CCCCCCCCCCC[C@@H](C[C@@H]1OC(=O)[C@H]1CCCCCC)OC(=O)[C@@H](NC=O)C(C)C ?
5.7

Using the record for CCCCCCCCCCC[C@@H](C[C@@H]1OC(=O)[C@H]1CCCCCC)OC(=O)[C@@H]1CCC(=O)N1 , report its Ki.
2.6

Need Ki, item CCCCCCCCCCC[C@@H](C[C@@H]1OC(=O)[C@H]1CCCCCC)OC(=O)[C@H](CC(C)C)NC=O [ORLISTAT]
2.5

// Ki lookup, key: CCCCCCCCCCC[C@@H](C[C@@H]1OC(=O)[C@H]1CCCCCC)OC(=O)CNC(C)=O
2.3

====

// Ratio IC50 lookup, one value per entry
MEASUREMENT DESCRIPTION: Selectivity ratio of IC50 for human recombinant DAGLalpha over IC50 for african green monkey MAGL
Give a plain numeric answer without units written out.

Worked cases, answers included:
QUERY SMILES: CCCCCCCCCCC[C@@H](C[C@@H]1OC(=O)[C@H]1CCCCCC)OC(=O)[C@@H](NC=O)C(C)C
Ratio IC50: 23

QUERY SMILES: CCCCCCCCCCC[C@@H](C[C@@H]1OC(=O)[C@H]1CCCCCC)OC(=O)[C@@H](NC=O)[C@@H](C)CC
Ratio IC50: 23

QUERY SMILES: CCCCCCCCCCC[C@@H](C[C@@H]1OC(=O)[C@H]1CCCCCC)OC(=O)[C@@H]1CCC(=O)N1
Ratio IC50: 15

QUERY SMILES: CCCCCCCCCCC[C@@H](C[C@@H]1OC(=O)[C@H]1CCCCCC)OC(=O)[C@H](C)NC=O
Ratio IC50: 23

QUERY SMILES: CCCCCCCCCCC[C@@H](C[C@@H]1OC(=O)[C@H]1CCCCCC)OC(=O)[C@@H](NC(C)=O)C(C)C
Ratio IC50: 15

Consider the additional compound presented here.
// query Ratio IC50 value for entry CCCCCCCCCCC[C@@H](C[C@@H]1OC(=O)[C@H]1CCCCCC)OC(=O)[C@@H](NC(C)=O)[C@@H](C)CC
15

====

Species: Homo sapiens
MEASUREMENT DESCRIPTION: Selectivity ratio of IC50 for human recombinant DAGLalpha over Ki for human recombinant CB1 receptor
QUANTITY: Ratio

Worked examples follow.
QUERY SMILES: CCCCCCCCCCC[C@@H](C[C@@H]1OC(=O)[C@H]1CCCCCC)OC(=O)[C@@H](NC=O)C(C)C
Ratio: 23
//
QUERY SMILES: CCCCCCCCCCC[C@@H](C[C@@H]1OC(=O)[C@H]1CCCCCC)OC(=O)[C@H](C)NC=O
Ratio: 23
//
QUERY SMILES: CCCCCCCCCCC[C@@H](C[C@@H]1OC(=O)[C@H]1CCCCCC)OC(=O)[C@@H](NC(C)=O)C(C)C
Ratio: 15

Endpoint output: Ratio of CCCCCCCCCCC[C@@H](C[C@@H]1OC(=O)[C@H]1CCCCCC)OC(=O)[C@@H]1CCC(=O)N1 . Value?
15

Name the reported Ratio value associated with the compound CCCCCCCCCCC[C@@H](C[C@@H]1OC(=O)[C@H]1CCCCCC)OC(=O)[C@@H](NC(C)=O)[C@@H](C)CC
15

Would you mind telling me what Ratio value was observed for CCCCCCCCCCC[C@@H](C[C@@H]1OC(=O)[C@H]1CCCCCC)OC(=O)[C@@H](NC=O)[C@@H](C)CC ?
23

====

The compounds listed here are annotated with their Ki.
SYSTEM NAME: Cannabinoid receptor 2 (Homo sapiens)
Sequence (P34972 whole entry): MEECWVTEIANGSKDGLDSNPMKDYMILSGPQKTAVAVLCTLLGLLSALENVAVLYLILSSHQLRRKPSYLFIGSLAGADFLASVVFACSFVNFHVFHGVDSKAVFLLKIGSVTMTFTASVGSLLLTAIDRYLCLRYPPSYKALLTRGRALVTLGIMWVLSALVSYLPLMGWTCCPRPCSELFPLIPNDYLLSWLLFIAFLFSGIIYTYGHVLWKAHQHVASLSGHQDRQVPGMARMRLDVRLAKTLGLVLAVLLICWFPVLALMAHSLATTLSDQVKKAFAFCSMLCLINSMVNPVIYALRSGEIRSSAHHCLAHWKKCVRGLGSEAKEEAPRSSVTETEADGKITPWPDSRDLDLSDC
MEASUREMENT DESCRIPTION: Displacement of [3H]CP-55940 from human recombinant CB2 receptor expressed in HEK293 cells by scintillation counting

Worked cases, Ki given:
QUERY SMILES: CCCCCCCCCCC[C@@H](C[C@@H]1OC(=O)[C@H]1CCCCCC)OC(=O)CNC=O
Ki: > 10 µM
--
QUERY SMILES: CCCCCCCCCCC[C@@H](C[C@@H]1OC(=O)[C@H]1CCCCCC)OC(=O)[C@H](C)NC=O
Ki: > 10 µM

Please look at the following compound next.
Name the recorded Ki for CCCCCCCCCCC[C@@H](C[C@@H]1OC(=O)[C@H]1CCCCCC)OC(=O)[C@@H](NC(C)=O)[C@@H](C)CC .
> 10 µM

====

SYSTEM NAME: UniProt Q9Y4D2
Sequence (Q9Y4D2 whole entry): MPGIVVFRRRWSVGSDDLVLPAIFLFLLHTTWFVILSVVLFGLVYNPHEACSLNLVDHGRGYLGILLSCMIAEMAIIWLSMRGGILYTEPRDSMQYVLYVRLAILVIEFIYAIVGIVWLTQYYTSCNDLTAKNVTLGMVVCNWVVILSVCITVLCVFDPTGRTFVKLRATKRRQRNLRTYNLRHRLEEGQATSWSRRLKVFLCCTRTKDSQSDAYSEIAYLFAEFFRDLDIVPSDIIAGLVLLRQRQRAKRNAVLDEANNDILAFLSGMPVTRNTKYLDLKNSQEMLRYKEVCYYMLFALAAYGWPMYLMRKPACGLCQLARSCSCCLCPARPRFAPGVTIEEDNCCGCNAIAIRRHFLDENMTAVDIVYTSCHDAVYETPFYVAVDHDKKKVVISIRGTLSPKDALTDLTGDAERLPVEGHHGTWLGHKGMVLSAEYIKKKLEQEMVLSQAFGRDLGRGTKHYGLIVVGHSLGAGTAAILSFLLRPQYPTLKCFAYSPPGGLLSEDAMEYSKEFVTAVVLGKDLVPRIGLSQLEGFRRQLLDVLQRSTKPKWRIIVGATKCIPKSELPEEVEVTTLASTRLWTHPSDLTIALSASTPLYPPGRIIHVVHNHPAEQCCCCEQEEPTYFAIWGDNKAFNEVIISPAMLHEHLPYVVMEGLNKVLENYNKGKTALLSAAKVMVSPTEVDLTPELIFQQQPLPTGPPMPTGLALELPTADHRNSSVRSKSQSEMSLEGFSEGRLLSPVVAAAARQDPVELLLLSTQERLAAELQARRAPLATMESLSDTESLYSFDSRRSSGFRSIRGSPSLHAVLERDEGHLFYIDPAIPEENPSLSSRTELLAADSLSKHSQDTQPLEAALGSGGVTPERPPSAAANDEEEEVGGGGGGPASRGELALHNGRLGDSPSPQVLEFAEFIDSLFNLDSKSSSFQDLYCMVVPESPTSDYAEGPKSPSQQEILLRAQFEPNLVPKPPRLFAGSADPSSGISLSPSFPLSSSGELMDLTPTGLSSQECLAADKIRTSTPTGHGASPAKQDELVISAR
MEASUREMENT DESCRIPTION: Inhibition of human recombinant DAGL-alpha-mediated sn-1-[14C]oleoyl-2-arachidonoyl-glycerol hydrolysis to 2-AG overexpressed in african green monkey COS7 cell membrane by scintillation counting
pIC50: −log10 of the molar value.
Label Met when pIC50 is at or above 6; otherwise label Not met.

Would you please look over these solved cases?
QUERY SMILES: CCCCCCCCCCC[C@@H](C[C@@H]1OC(=O)[C@H]1CCCCCC)OC(=O)[C@@H](NC(C)=O)C(C)C
ANSWER LABEL: Met

QUERY SMILES: CCCCCCCCCCC[C@@H](C[C@@H]1OC(=O)[C@H]1CCCCCC)OC(=O)[C@H](C)NC=O
ANSWER LABEL: Met

QUERY SMILES: CCCCCCCCCCC[C@@H](C[C@@H]1OC(=O)[C@H]1CCCCCC)OC(=O)[C@@H](NC=O)[C@@H](C)CC
ANSWER LABEL: Met

Is pIC50 at least 6? Consider CCCCCCCCCCC[C@@H](C[C@@H]1OC(=O)[C@H]1CCCCCC)OC(=O)[C@@H]1CCC(=O)N1
Met

Please tell me: is the compound CCCCCCCCCCC[C@@H](C[C@@H]1OC(=O)[C@H]1CCCCCC)OC(=O)CNC=O at or over 6 in terms of pIC50?
Not met

Decide: pIC50 of CCCCCCCCCCC[C@@H](C[C@@H]1OC(=O)[C@H]1CCCCCC)OC(=O)[C@H](Cc1ccccc1)NC=O >= 6?
Not met

Textbook exercise: given the entry CCCCCCCCCCC[C@@H](C[C@@H]1OC(=O)[C@H]1CCCCCC)OC(=O)CNC(=O)OCc1ccccc1 , state whether its pIC50 is greater than or equal to 6.
Not met

# check: pIC50 of CCCCCCCCCCC[C@@H](C[C@@H]1OC(=O)[C@H]1CCCCCC)OC(=O)[C@H](Cc1ccccc1)NC(=O)OCc1ccccc1 is greater than or equal to 6
Not met

Does CCCCCCCCCCC[C@@H](C[C@@H]1OC(=O)[C@H]1CCCCCC)OC(=O)[C@@H](NC=O)C(C)C have a reported pIC50 of at least 6?
Met

Please tell me: is the compound CCCCCCCCCCC[C@H](O)C[C@@H]1OC(=O)[C@H]1CCCCCC at or over 6 in terms of pIC50?
Not met

Measured values drawn from ChEMBL document CHEMBL1142489 for this set.
